# growth yield values compiled below
# System: Trichoderma virens ATCC 9645
# ASSAY_DETAILS: growth yield (OD600) with compound + IPBC relative to untreated control; higher = less growth inhibition
# CONDITION_SET: compound concentration: 100 uM; IPBC concentration: 200 ng/ml; 72 h
Where a name gives a salt, the structure may show the parent alone. Among all 1,300 compounds or so, about 130 (10%) showed an effect of 50% or more. Shown is part of a subset that was picked to be rich in strong results.
Only the number, expressed in %, is required.

C/C(=C(\CCOP(=O)(O)O)SC(=O)c1ccccc1)N(C=O)Cc1cnc(C)nc1N [Benfotiamine] + CCCCNC(=O)OCC#CI [3-iodo-2-propynyl butylcarbamate (IPBC)] | 90.3
CC(C)NC[C@H](O)COc1ccc(CC(N)=O)cc1 [(S)-(-)-Atenolol] + CCCCNC(=O)OCC#CI [3-iodo-2-propynyl butylcarbamate (IPBC)] | 88.2
Cc1ccc(C(=O)c2cc(O)c(O)c([N+](=O)[O-])c2)cc1 [Tolcapone] + CCCCNC(=O)OCC#CI [3-iodo-2-propynyl butylcarbamate (IPBC)] | 56
CCOC(=O)C1=C(C)NC(C)=C(C(=O)OC)C1c1cccc([N+](=O)[O-])c1 (stereo not given) [Nitrendipine] + CCCCNC(=O)OCC#CI [3-iodo-2-propynyl butylcarbamate (IPBC)] | 85.7
COC(=O)C1=C(C)NC(C)=C(C(=O)OC)C1c1ccccc1[N+](=O)[O-] [Nifedipine] + CCCCNC(=O)OCC#CI [3-iodo-2-propynyl butylcarbamate (IPBC)] | 55.5

Reported growth yield, molecule CCN(CC)C(=O)/C(C#N)=C/c1cc(O)c(O)c([N+](=O)[O-])c1 [Entacapone] + CCCCNC(=O)OCC#CI [3-iodo-2-propynyl butylcarbamate (IPBC)] : ____
80.4

Record request: growth yield value, item Oc1ccc(OCc2ccccc2)cc1 [Monobenzone] + CCCCNC(=O)OCC#CI [3-iodo-2-propynyl butylcarbamate (IPBC)]
63

Requested read-out: growth yield. Entry: COc1cccc2c1C(=O)c1c(O)c3c(c(O)c1C2=O)C[C@@](O)(C(=O)CO)C[C@@H]3O[C@H]1C[C@H](N)[C@H](O)[C@H](C)O1 [Doxorubicin hydrochloride] + CCCCNC(=O)OCC#CI [3-iodo-2-propynyl butylcarbamate (IPBC)]
34.8

For the molecule CCOC(=O)C1=C(C)NC(C)=C(C(=O)OC)C1c1cccc(Cl)c1Cl (stereo not given) [Felodipine] + CCCCNC(=O)OCC#CI [3-iodo-2-propynyl butylcarbamate (IPBC)] , what growth yield is on record?
92.9

Item under review: COc1cccc2c1C(=O)c1c(O)c3c(c(O)c1C2=O)C[C@@](O)(C(=O)CO)C[C@@H]3O[C@H]1C[C@H](N)[C@@H](O)[C@H](C)O1 [Epirubicin hydrochloride] + CCCCNC(=O)OCC#CI [3-iodo-2-propynyl butylcarbamate (IPBC)] . Reported growth yield?
95.3
